biological target: Human CARM1 (PRMT4) (Homo sapiens (Human), UniProt Q86X55)
Sequence (Q86X55 other isoform, or with tags, fused parts or gaps isoform Q86X55-1): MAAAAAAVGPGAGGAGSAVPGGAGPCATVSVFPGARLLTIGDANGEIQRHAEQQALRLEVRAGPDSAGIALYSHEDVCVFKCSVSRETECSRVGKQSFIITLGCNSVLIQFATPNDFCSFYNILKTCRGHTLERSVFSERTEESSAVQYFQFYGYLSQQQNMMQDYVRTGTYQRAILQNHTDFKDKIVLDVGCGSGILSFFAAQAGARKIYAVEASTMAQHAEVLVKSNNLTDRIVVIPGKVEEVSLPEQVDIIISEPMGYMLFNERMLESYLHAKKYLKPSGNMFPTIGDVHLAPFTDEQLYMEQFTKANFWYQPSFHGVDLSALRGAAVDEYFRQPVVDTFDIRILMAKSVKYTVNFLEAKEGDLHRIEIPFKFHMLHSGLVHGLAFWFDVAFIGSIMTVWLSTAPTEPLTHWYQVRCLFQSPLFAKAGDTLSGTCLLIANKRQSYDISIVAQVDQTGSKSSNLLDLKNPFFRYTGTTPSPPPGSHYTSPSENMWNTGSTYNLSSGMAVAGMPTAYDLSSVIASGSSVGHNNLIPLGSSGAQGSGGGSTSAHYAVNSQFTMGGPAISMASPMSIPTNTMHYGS
Quick reference for IC50 among some compounds

Reference set (3 entries):
- compound: "CNC[C@@H](O)COc1ccc(Cl)c(-c2nc(N[C@H]3C[C@H](OC)C3)c(Cl)c(-c3c(C)noc3C)n2)c1"
  readout-value: "< 100 nM"
- compound: "CNCC(O)COc1cccc(-c2nc(-c3scnc3C)cc(N(C)C3CCOCC3)n2)c1 (centres unmarked)"
  readout-value: "< 100 nM"
- compound: "CNC[C@@H](O)COc1ccc(Cl)c(-c2nc(-c3c(C)noc3C)c(C)c(N3CC4(CCN(C(=O)OC(C)C)C4)C3)n2)c1"
  readout-value: "< 100 nM"

Ask: Missing value: IC50, Human CARM1 (PRMT4) (Homo sapiens (Human), UniProt Q86X55), entry CNCC(O)COc1cc(Cl)cc(-c2nc(N(C)C3CCOCC3)c(C)c(-n3cccn3)n2)c1 (centres unmarked) . Fill in?
Result: < 100 nM

Ask: What measured IC50 is associated with CNCC(O)COc1cccc(-c2nc(-c3nc(C)cs3)cc(N(C)C3CCOCC3)n2)c1 (centres unmarked) on Human CARM1 (PRMT4) (Homo sapiens (Human), UniProt Q86X55)?
Result: < 100 nM

Ask: I'm curious: which IC50 was measured for CNCC(O)COc1cccc(-c2nc(NCC3CCN(C4CC4)CC3)c(C)c(-c3c(C)noc3C)n2)c1 (centres unmarked) tested on Human CARM1 (PRMT4) (Homo sapiens (Human), UniProt Q86X55)?
Result: < 100 nM

Ask: Lookup: IC50 / Human CARM1 (PRMT4) (Homo sapiens (Human), UniProt Q86X55) / CNCC(O)COc1cccc(-c2nc(-c3c(C)noc3C)c(C)c(N3CCOC(C)(C)C3)n2)c1 (centres unmarked)
Result: < 100 nM

Ask: What measured IC50 is associated with CNC[C@@H](O)COc1ccc(Cl)c(-c2nc(N[C@H]3CN(C4CC4)C[C@@H]3F)c(C)c(-c3c(C)noc3C)n2)c1 on Human CARM1 (PRMT4) (Homo sapiens (Human), UniProt Q86X55)?
Result: < 100 nM

Ask: Lookup: IC50 / Human CARM1 (PRMT4) (Homo sapiens (Human), UniProt Q86X55) / CNCC(O)COc1cccc(-c2nc(NCC3CCN(C(=O)N(C)C)CC3)c(C)c(-c3c(C)noc3C)n2)c1 (centres unmarked)
Result: < 100 nM

Ask: Form field - read-out: IC50; system: Human CARM1 (PRMT4) (Homo sapiens (Human), UniProt Q86X55); submitted item: CNC[C@@H](O)COc1ccc(Cl)c(-c2nc(-c3c(C)noc3C)c(C)c(N3CCc4ncccc43)n2)c1
Result: < 100 nM

Ask: Give Human CARM1 (PRMT4) (Homo sapiens (Human), UniProt Q86X55) IC50 for CNC[C@@H](O)COc1ccc(Cl)c(-c2nc(N[C@@H]3CCN(C(=O)OC)[C@@H](C)C3)c(C)c(-c3c(C)noc3C)n2)c1
Result: < 100 nM

Ask: For Human CARM1 (PRMT4) (Homo sapiens (Human), UniProt Q86X55), provide IC50 of CNCC(O)COc1cccc(-c2nc(-c3ccc4c(c3)OCCO4)cc(N(CCOC)CCOC)n2)c1 (centres unmarked) please.
Result: < 100 nM

Ask: # value lookup — system Human CARM1 (PRMT4) (Homo sapiens (Human), UniProt Q86X55), readout IC50, item CNCC(O)COc1cccc(-c2nc(-c3c(C)noc3C)cc(N3CCN(C)[C@H](C)C3)n2)c1 (some centres unmarked)
Result: < 100 nM

Ask: Provide value of IC50 for this record tested with Human CARM1 (PRMT4) (Homo sapiens (Human), UniProt Q86X55): CNC[C@@H](O)COc1cccc(-c2nc(NCC3CCOCC3)c(C)c(-c3c(C)noc3C)n2)c1
Result: < 100 nM

---

Quick record of IC50 values for Human CARM1 (PRMT4) (Homo sapiens (Human), UniProt Q86X55).

- compound: "CNC[C@H](O)COc1ccc(F)c(-c2nc(N[C@H]3CCN(C(=O)OC)C[C@H]3F)c(C)c(-c3c(C)noc3C)n2)c1"
  IC50: "< 100 nM"
- compound: "CNCC(O)COc1cccc(-c2nc(-c3c(C)noc3C)c(C)c(N3CCO[C@@H](CN(C)C(=O)OC)C3)n2)c1 (stereo partly shown)"
  IC50: "< 100 nM"

Ask: Provide the documented IC50 with Human CARM1 (PRMT4) (Homo sapiens (Human), UniProt Q86X55) as the system for CNCC(O)COc1cccc(-c2nc(OCC3CCNCC3)c(C)c(-c3c(C)noc3C)n2)c1 (stereo not shown)
Result: < 100 nM

Ask: Form entry - test system: Human CARM1 (PRMT4) (Homo sapiens (Human), UniProt Q86X55); read-out: IC50; compound: CNCC(O)COc1cccc(-c2nc(NC3CCOC3)c(C)c(N3CC(N)CC(Cl)C3)n2)c1 (stereo not shown)
Result: < 100 nM

---

Here's a batch of compounds along with measured IC50 for Human CARM1 (PRMT4) (Homo sapiens (Human), UniProt Q86X55).

Worked examples, 2 compounds total:
- compound: "CNCC(O)COc1cccc(-c2nc(-c3c(C)noc3C)cc(N3CCN(n4c(C)nnc4C)CC3)n2)c1 (stereo not drawn)"
  IC50: "< 100 nM"
- compound: "CNC[C@H](O)COc1cccc(-c2nc(NC3CCOCC3)c(C)c(-c3c(C)noc3C)n2)c1"
  IC50: "< 100 nM"

// below: IC50 requested for another compound
Ask: Hi! What's the reported IC50 for CCOC(=O)N1CCC(Nc2nc(-c3cccc(OCC(O)CNC)c3)nc(-c3c(C)noc3C)c2C)CC1 (stereo not drawn) on Human CARM1 (PRMT4) (Homo sapiens (Human), UniProt Q86X55)?
Result: < 100 nM

---

What follows is a record of IC50 for Human CARM1 (PRMT4) (Homo sapiens (Human)).

Known results for molecules:
- molecule: "CNC[C@@H](O)COc1ccc(Cl)c(-c2nc(-c3c(C)noc3C)c(C)c(N3CC(F)(F)C3)n2)c1"
  IC50: "< 100 nM"
- molecule: "CNC[C@@H](O)COc1ccc(Cl)c(-c2nc(N[C@@H]3CO[C@H](C)C3)c(C)c(-c3c(C)noc3C)n2)c1"
  IC50: "< 100 nM"

Ask: Please state recorded IC50 (tested on Human CARM1 (PRMT4) (Homo sapiens (Human))) of CNCC(O)COc1ccc(Cl)c(-c2nc(NC[C@H]3COCCN3C3COC3)c(C)c(-c3c(C)noc3C)n2)c1 (stereo partly drawn)
Result: < 100 nM
